These data points were gathered from ChEMBL document CHEMBL1152401.

Test system: Streptococcus pneumoniae
MEASUREMENT_NOTES: Antimicrobial activity against erythromycin-resistant Streptococcus pneumoniae 05Z006 by broth microdilution method
Assay type: functional, organism-based
Activity calls are given as the source filed them. No cut-off for these calls is given here.
Parameter call: string, one of 1 for active, 0 for inactive

Use the examples below as a reference point.
{"columns": ["COMPOUND_STRUCTURE", "SUBJECT_OF_TEST", "CLASS"],
 "data": [
  ["CC[C@H]1OC(=O)[C@H](C)C(=O)[C@H](C)[C@@H](O[C@@H]2O[C@H](C)C[C@H](N(C)C)[C@H]2O)[C@@](C)(OC)C[C@@H](C)C(=O)[C@H](C)[C@H]2N(CCCSc3nc4ccc(OC)nc4[nH]3)C(=O)O[C@]12C", "Streptococcus pneumoniae", 1],
  ["CC[C@H]1OC(=O)[C@H](C)[C@@H](O[C@H]2C[C@@](C)(OC)[C@@H](O)[C@H](C)O2)[C@H](C)[C@@H](O[C@@H]2O[C@H](C)C[C@H](N(C)C)[C@H]2O)[C@](C)(O)C[C@@H](C)CN(C)[C@H](C)[C@@H](O)[C@]1(C)O", "Streptococcus pneumoniae", 0],
  ["CC[C@H]1OC(=O)[C@H](C)[C@@H](OC(=O)Cc2ccc3c(c2)OCO3)[C@H](C)[C@@H](O[C@@H]2O[C@H](C)C[C@H](N(C)C)[C@H]2O)[C@@](C)(OC)C[C@@H](C)C(=O)[C@H](C)[C@H]2N(CCCCSc3nc4ccc(OC)nc4[nH]3)C(=O)O[C@]12C", "Streptococcus pneumoniae", 1],
  ["CC[C@H]1OC(=O)[C@H](C)C(=O)[C@H](C)[C@@H](O[C@@H]2O[C@H](C)C[C@H](N(C)C)[C@H]2O)[C@](C)(OC)C[C@@H](C)C(=O)[C@H](C)[C@H]2N(CCCCn3cnc(-c4cccnc4)c3)C(=O)O[C@]12C", "Streptococcus pneumoniae", 1],
  ["CC[C@H]1OC(=O)[C@H](C)[C@@H](OC(=O)Cc2cccnc2)[C@H](C)[C@@H](O[C@@H]2O[C@H](C)C[C@H](N(C)C)[C@H]2O)[C@@](C)(OC)C[C@@H](C)C(=O)[C@H](C)[C@H]2N(CCCSc3nc4ccc(OC)nc4[nH]3)C(=O)O[C@]12C", "Streptococcus pneumoniae", 1],
  ["CC[C@H]1OC(=O)[C@H](C)[C@@H](O[C@H]2C[C@@](C)(OC)[C@@H](O)[C@H](C)O2)[C@H](C)[C@@H](O[C@@H]2O[C@H](C)C[C@H](N(C)C)[C@H]2O)[C@](C)(OC)C[C@@H](C)C(=O)[C@H](C)[C@@H](O)[C@]1(C)O", "Streptococcus pneumoniae", 0],
  ["CC[C@H]1OC(=O)[C@H](C)[C@@H](OC(=O)Cc2cccnc2)[C@H](C)[C@@H](O[C@@H]2O[C@H](C)C[C@H](N(C)C)[C@H]2O)[C@@](C)(OC)C[C@@H](C)C(=O)[C@H](C)[C@H]2N(CCCCSc3nc4ccc(OC)nc4[nH]3)C(=O)O[C@]12C", "Streptococcus pneumoniae", 1]
]}

// switching to the query molecule
Qu. Entry `CC[C@H]1OC(=O)[C@H](C)[C@@H](OC(=O)Cc2ccc3c(c2)OCO3)[C@H](C)[C@@H](O[C@@H]2O[C@H](C)C[C@H](N(C)C)[C@H]2O)[C@@](C)(OC)C[C@@H](C)C(=O)[C@H](C)[C@H]2N(CCCSc3nc4ccc(OC)nc4[nH]3)C(=O)O[C@]12C` : call = ?
Ans. 1

---

System: Streptococcus pyogenes
MEASUREMENT_NOTES: Antimicrobial activity against erythromycin-resistant Streptococcus pyogenes 07Z014 by broth microdilution method
Type: functional, organism-based
Active and inactive are the calls of the source. The rule behind the calls is not given here.
Parameter call: string, one of class 1 for active, class 0 for inactive

Use the examples below as a reference point.
{"columns": ["COMPOUND_STRUCTURE", "CLASS"],
 "data": [
  ["CC[C@H]1OC(=O)[C@H](C)[C@@H](O[C@H]2C[C@@](C)(OC)[C@@H](O)[C@H](C)O2)[C@H](C)[C@@H](O[C@@H]2O[C@H](C)C[C@H](N(C)C)[C@H]2O)[C@](C)(O)C[C@@H](C)CN(C)[C@H](C)[C@@H](O)[C@]1(C)O", "class 0"],
  ["CC[C@H]1OC(=O)[C@H](C)C(=O)[C@H](C)[C@@H](O[C@@H]2O[C@H](C)C[C@H](N(C)C)[C@H]2O)[C@](C)(OC)C[C@@H](C)C(=O)[C@H](C)[C@H]2N(CCCCn3cnc(-c4cccnc4)c3)C(=O)O[C@]12C", "class 1"],
  ["CC[C@H]1OC(=O)[C@H](C)[C@@H](OC(=O)Cc2cccnc2)[C@H](C)[C@@H](O[C@@H]2O[C@H](C)C[C@H](N(C)C)[C@H]2O)[C@@](C)(OC)C[C@@H](C)C(=O)[C@H](C)[C@H]2N(CCCCSc3nc4ccc(OC)nc4[nH]3)C(=O)O[C@]12C", "class 1"],
  ["CC[C@H]1OC(=O)[C@H](C)[C@@H](OC(=O)Cc2ccc3c(c2)OCO3)[C@H](C)[C@@H](O[C@@H]2O[C@H](C)C[C@H](N(C)C)[C@H]2O)[C@@](C)(OC)C[C@@H](C)C(=O)[C@H](C)[C@H]2N(CCCSc3nc4ccc(OC)nc4[nH]3)C(=O)O[C@]12C", "class 1"],
  ["CC[C@H]1OC(=O)[C@H](C)[C@@H](OC(=O)Cc2ccc3c(c2)OCO3)[C@H](C)[C@@H](O[C@@H]2O[C@H](C)C[C@H](N(C)C)[C@H]2O)[C@@](C)(OC)C[C@@H](C)C(=O)[C@H](C)[C@H]2N(CCCCSc3nc4ccc(OC)nc4[nH]3)C(=O)O[C@]12C", "class 1"],
  ["CC[C@H]1OC(=O)[C@H](C)[C@@H](O[C@H]2C[C@@](C)(OC)[C@@H](O)[C@H](C)O2)[C@H](C)[C@@H](O[C@@H]2O[C@H](C)C[C@H](N(C)C)[C@H]2O)[C@](C)(OC)C[C@@H](C)C(=O)[C@H](C)[C@@H](O)[C@]1(C)O", "class 0"]
]}

Qu. Entry `CC[C@H]1OC(=O)[C@H](C)[C@@H](OC(=O)Cc2cccnc2)[C@H](C)[C@@H](O[C@@H]2O[C@H](C)C[C@H](N(C)C)[C@H]2O)[C@@](C)(OC)C[C@@H](C)C(=O)[C@H](C)[C@H]2N(CCCSc3nc4ccc(OC)nc4[nH]3)C(=O)O[C@]12C` : call = ?
Ans. class 1

Qu. Entry `CC[C@H]1OC(=O)[C@H](C)C(=O)[C@H](C)[C@@H](O[C@@H]2O[C@H](C)C[C@H](N(C)C)[C@H]2O)[C@@](C)(OC)C[C@@H](C)C(=O)[C@H](C)[C@H]2N(CCCSc3nc4ccc(OC)nc4[nH]3)C(=O)O[C@]12C` : call = ?
Ans. class 1

---

Tested on: Streptococcus pneumoniae
MEASUREMENT_NOTES: Antimicrobial activity against erythromycin-susceptible Streptococcus pneumoniae 07H252 by broth microdilution method
Type: functional, organism-based
Active and inactive are the calls of the source. The calls are words filed in the database; no cut-off is given here.

{"columns": ["COMPOUND_STRUCTURE", "Activity"],
 "data": [
  ["CC[C@H]1OC(=O)[C@H](C)[C@@H](OC(=O)Cc2ccc3c(c2)OCO3)[C@H](C)[C@@H](O[C@@H]2O[C@H](C)C[C@H](N(C)C)[C@H]2O)[C@@](C)(OC)C[C@@H](C)C(=O)[C@H](C)[C@H]2N(CCCSc3nc4ccc(OC)nc4[nH]3)C(=O)O[C@]12C", "Active"],
  ["CC[C@H]1OC(=O)[C@H](C)[C@@H](O[C@H]2C[C@@](C)(OC)[C@@H](O)[C@H](C)O2)[C@H](C)[C@@H](O[C@@H]2O[C@H](C)C[C@H](N(C)C)[C@H]2O)[C@](C)(O)C[C@@H](C)CN(C)[C@H](C)[C@@H](O)[C@]1(C)O", "Active"],
  ["CC[C@H]1OC(=O)[C@H](C)C(=O)[C@H](C)[C@@H](O[C@@H]2O[C@H](C)C[C@H](N(C)C)[C@H]2O)[C@](C)(OC)C[C@@H](C)C(=O)[C@H](C)[C@H]2N(CCCCn3cnc(-c4cccnc4)c3)C(=O)O[C@]12C", "Active"],
  ["CC[C@H]1OC(=O)[C@H](C)[C@@H](OC(=O)Cc2cccnc2)[C@H](C)[C@@H](O[C@@H]2O[C@H](C)C[C@H](N(C)C)[C@H]2O)[C@@](C)(OC)C[C@@H](C)C(=O)[C@H](C)[C@H]2N(CCCSc3nc4ccc(OC)nc4[nH]3)C(=O)O[C@]12C", "Active"]
]}
